procedureSummary: Oral bioavailability in rat (dose 10 mg/kg p.o.)
Assay type: ADME, organism-based
conditionSet: in vivo
recordedEndpoint: bioavailability (%)
Answer format: numeric, % implied, no suffix.

>  <compound>
Cl.NC1CCC(CNC(=O)[C@@H]2CCCN2C(=O)CC(C2CCCCC2)C2CCCCC2)CC1 (some centres not stated)

>  <bioavailability (%)>
56

$$$$

For the compound NC1CCC(CNC(=O)[C@@H]2CCCN2C(=O)CC(c2ccccc2)c2ccccc2)CC1.O=C(O)C(F)(F)F (some centres not stated) , what bioavailability is on record? 10

* * *

Observed pKi values for Plasminogen (Homo sapiens, UniProt P00747) are listed in what follows.
Would you please state pKi, meaning minus log10 of the concentration in mol/L, as a bare number?

Worked examples follow.
>  <compound>
NC1CCC(CNC(=O)[C@@H]2CCCN2C(=O)CC(c2ccccc2)c2ccccc2)CC1.O=C(O)C(F)(F)F (some centres not stated)

>  <experimentalSystem>
Plasminogen (Homo sapiens, UniProt P00747)
Sequence (P00747 97-580 limits assumed): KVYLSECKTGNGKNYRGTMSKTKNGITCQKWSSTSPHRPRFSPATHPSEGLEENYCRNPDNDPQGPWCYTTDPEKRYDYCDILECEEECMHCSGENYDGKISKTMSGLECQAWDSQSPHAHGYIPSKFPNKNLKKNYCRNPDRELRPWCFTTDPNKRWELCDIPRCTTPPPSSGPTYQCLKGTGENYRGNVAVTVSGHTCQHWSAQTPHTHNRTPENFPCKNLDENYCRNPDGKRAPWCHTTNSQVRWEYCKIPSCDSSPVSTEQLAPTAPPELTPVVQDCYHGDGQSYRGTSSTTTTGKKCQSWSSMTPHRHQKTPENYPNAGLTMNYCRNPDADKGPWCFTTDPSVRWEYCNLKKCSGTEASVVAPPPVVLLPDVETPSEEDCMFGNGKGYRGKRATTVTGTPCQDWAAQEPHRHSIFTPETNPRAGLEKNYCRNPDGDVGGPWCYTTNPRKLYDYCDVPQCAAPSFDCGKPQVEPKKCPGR
Sequence (P00747 581-810 limits assumed): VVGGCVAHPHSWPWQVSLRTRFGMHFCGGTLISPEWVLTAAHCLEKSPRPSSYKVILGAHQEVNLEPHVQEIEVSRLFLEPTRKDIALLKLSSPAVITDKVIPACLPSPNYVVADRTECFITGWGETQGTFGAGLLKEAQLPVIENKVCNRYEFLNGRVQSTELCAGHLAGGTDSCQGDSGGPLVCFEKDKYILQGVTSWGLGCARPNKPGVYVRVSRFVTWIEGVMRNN

>  <pKi>
3.13

$$$$
>  <compound>
Cl.NC1CCC(CNC(=O)[C@@H]2CCCN2C(=O)CC(C2CCCCC2)C2CCCCC2)CC1 (some centres not stated)

>  <experimentalSystem>
Plasminogen (Homo sapiens, UniProt P00747)

>  <pKi>
3.75

$$$$
>  <compound>
NC1CCC(CNC(=O)[C@@H]2CCCN2C(=O)CC(c2ccccc2)c2ccncc2)CC1 (single isomer, unassigned; diastereomer 2)

>  <experimentalSystem>
Plasminogen (Homo sapiens, UniProt P00747)

>  <pKi>
3.13

$$$$

For the compound Cl.NC1CCC(CNC(=O)[C@@H]2CCCN2C(=O)CC2c3ccccc3C=Cc3ccccc32)CC1 (some centres not stated) , what pKi is on record? 3.38

For the compound NC1CCC(CNC(=O)[C@@H]2CCCN2C(=O)CC(c2cccnc2)c2ccc3c(c2)OCO3)CC1.O=C(O)C(F)(F)F (single isomer, unassigned; diastereomer 2) , what pKi is on record? 3.24
